experiment: Cytotoxicity against human C-28/I2 cells measured after 72 hrs by CCK8 assay; type: toxicity, cell-based
Parameter: CC50 at 72 h. Scope: all listed entries.
observed_property: CC50 at 72 h

INSERT INTO results (structure_string, reported_value) VALUES
  ('CN(C)c1cc(NCC(=O)Nc2ccc(OC(F)(F)F)cc2)c2c(=O)n(C)c(=O)n(C)c2n1', '> 25 µM'),
  ('CN1CCN(c2cc(NCC(=O)Nc3ccc(Cl)cc3)c3c(=O)n(C)c(=O)n(C)c3n2)CC1', '> 25 µM'),
  ('Cn1c(=O)c2c(Nc3ccccn3)cc(=O)n(C)c2n(C)c1=O', '> 100 µM'),
  ('Cn1c(=O)c2c(Nc3ccc(OC(F)(F)F)cc3)cc(=O)n(C)c2n(C)c1=O', '> 100 µM'),
  ('CN1CCN(c2cc(NCC(=O)Nc3ccc(C(F)(F)F)cc3)c3c(=O)n(C)c(=O)n(C)c3n2)CC1', '> 50 µM'),
  ('Cn1c(=O)c2c(Nc3ccc(F)c(Cl)c3)cc(=O)n(C)c2n(C)c1=O', '> 100 µM'),
  ('CN(C)c1cc(NCC(=O)Nc2ccc(C(F)(F)F)cc2)c2c(=O)n(C)c(=O)n(C)c2n1', '> 50 µM'),
  ('Cn1c(=O)c2c(NCCCN3CCOCC3)c(Cc3ccccc3)c(=O)n(C)c2n(C)c1=O', '> 100 µM'),
  ('CN1CCN(c2cc(NCC(=O)Nc3cccc(Cl)c3)c3c(=O)n(C)c(=O)n(C)c3n2)CC1', '> 50 µM'),
  ('Cn1c(=O)c2c(NCC(=O)Nc3ccc(OC(F)(F)F)cc3)cc(N3CCCC3)nc2n(C)c1=O', '> 100 µM'),
  ('CN1CCN(c2cc(NCC(=O)Nc3cccc(C(F)(F)F)c3)c3c(=O)n(C)c(=O)n(C)c3n2)CC1', '> 100 µM'),
  ('Cn1c(=O)c2c(NCC(=O)Nc3ccc(C(F)(F)F)cc3)cc(N3CCOCC3)nc2n(C)c1=O', '> 100 µM'),
  ('COC(=O)c1ccccc1Nc1cc(=O)n(C)c2c1c(=O)n(C)c(=O)n2C', '> 100 µM'),
  ('Cc1ccccc1NC(=O)CNc1cc(N(C)C)nc2c1c(=O)n(C)c(=O)n2C', '> 100 µM'),
  ('Cn1c(=O)c2c(NCC(=O)Nc3ccc(Cl)cc3)cc(N3CCOCC3)nc2n(C)c1=O', '> 100 µM'),
  ('CC(C)Nc1c(Cc2ccccc2)c(=O)n(C)c2c1c(=O)n(C)c(=O)n2C', '> 100 µM'),
  ('CN1CCN(c2cc(NCC(=O)Nc3ccc(OC(F)(F)F)cc3)c3c(=O)n(C)c(=O)n(C)c3n2)CC1', '> 100 µM'),
  ('Cn1c(=O)c2c(NCC(=O)Nc3ccc(F)cc3)cc(N3CCOCC3)nc2n(C)c1=O', '> 100 µM'),
  ('CCn1c(=O)n(C)c(=O)c2c(Nc3ccc(F)c(Cl)c3)cc(=O)n(C)c21', '> 100 µM'),
  ('CN(C)c1cc(NCC(=O)Nc2cccc(Cl)c2)c2c(=O)n(C)c(=O)n(C)c2n1', '> 100 µM'),
  ('Cn1c(=O)c2c(NCC(=O)Nc3ccc(Cl)cc3)cc(N3CCCC3)nc2n(C)c1=O', '> 100 µM'),
  ('Cn1c(=O)c2c(NCC(=O)Nc3cccc(C(F)(F)F)c3)cc(N3CCOCC3)nc2n(C)c1=O', '> 100 µM'),
  ('CN(C)c1cc(NCC(=O)Nc2cccc(C(F)(F)F)c2)c2c(=O)n(C)c(=O)n(C)c2n1', '> 100 µM'),
  ('Cc1ccccc1NC(=O)CNc1cc(=O)n(C)c2c1c(=O)n(C)c(=O)n2C', '> 100 µM'),
  ('CN1CCN(c2cc(NCC(=O)Nc3ccc(F)cc3)c3c(=O)n(C)c(=O)n(C)c3n2)CC1', '> 50 µM'),
  ('Cc1ccccc1NC(=O)CNc1cc(N2CCCC2)nc2c1c(=O)n(C)c(=O)n2C', '> 100 µM'),
  ('Cn1c(=O)c2c(NC3CC3)c(Cc3ccccc3)c(=O)n(C)c2n(C)c1=O', '> 100 µM');
